testSystem: NAD-dependent protein deacetylase sirtuin-2 (Homo sapiens)
Sequence (Q8IXJ6 whole entry): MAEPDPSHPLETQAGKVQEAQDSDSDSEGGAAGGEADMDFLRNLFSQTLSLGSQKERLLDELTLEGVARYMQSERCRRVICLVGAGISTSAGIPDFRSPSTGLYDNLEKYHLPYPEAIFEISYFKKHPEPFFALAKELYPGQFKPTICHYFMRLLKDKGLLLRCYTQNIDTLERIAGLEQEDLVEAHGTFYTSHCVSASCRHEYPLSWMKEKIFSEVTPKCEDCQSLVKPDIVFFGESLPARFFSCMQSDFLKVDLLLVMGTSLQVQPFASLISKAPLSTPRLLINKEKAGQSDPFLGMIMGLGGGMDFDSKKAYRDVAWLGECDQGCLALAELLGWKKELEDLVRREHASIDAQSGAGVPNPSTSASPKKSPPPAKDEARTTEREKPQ
testDetails: Inhibition of recombinant SIRT2 (unknown origin) using FAM-RHKK(Ac)LM as substrate measured after 60 mins by electrophoretic mobility shift assay
Cut-off 10 µM on IC50: below means true (1), at or above means false (0).

{"columns": ["mol", "testSystem", "cat"],
 "data": [
  ["COC(=O)[C@H](Cc1cn(C(c2ccccc2)(c2ccccc2)c2ccccc2)cn1)NCc1ccccn1", "NAD-dependent protein deacetylase sirtuin-2 (Homo sapiens)", "false (0)"],
  ["COC(=O)[C@H](Cc1cn(C(c2ccccc2)(c2ccccc2)c2ccccc2)cn1)N(Cc1ccccc1)Cc1ccccc1", "NAD-dependent protein deacetylase sirtuin-2 (Homo sapiens)", "false (0)"],
  ["COC(=O)[C@H](Cc1cn(C(c2ccccc2)(c2ccccc2)c2ccccc2)cn1)NCc1ccc2ccccc2n1", "NAD-dependent protein deacetylase sirtuin-2 (Homo sapiens)", "true (1)"]
]}

Answer whether the compound COC(=O)[C@H](Cc1cn(C(c2ccccc2)(c2ccccc2)c2ccccc2)cn1)NCc1ccccc1 has IC50 strictly less than 10 µM
false (0)

Moving on to the next compound: COC(=O)[C@H](Cc1cn(C(c2ccccc2)(c2ccccc2)c2ccccc2)cn1)NCc1ccc(N(C)C)cc1
false (0)

Moving on to the next compound: COC(=O)[C@@H](N)Cc1cn(C(c2ccccc2)(c2ccccc2)c2ccccc2)cn1
false (0)

Moving on to the next compound: COC(=O)[C@H](Cc1cn(C(c2ccccc2)(c2ccccc2)c2ccccc2)cn1)NCc1ccncc1Br
true (1)
